# Test system: E34 (patient-derived glioblastoma stem cells of proneural subtype)
# measurement_notes: phenotypic distance (Euclidean, principal components) from DMSO controls (arbitrary units); higher = stronger morphological change
# experimental_parameters: 3000 nM; exposure time: 72 h
Counter-ions that a name gives are not always drawn.
So I've got a bunch of compounds here, and I need their phenotypic distance values.

Below, 10 compounds whose answers are already recorded.
COc1cccc2c1C(=O)c1c(O)c3c(c(O)c1C2=O)C[C@@](O)(C(C)=O)C[C@@H]3O[C@H]1C[C@H](N)[C@H](O)[C@H](C)O1 [Daunorubicin hydrochloride] :: 3.57
CC(C)NCC(O)c1cc(O)cc(O)c1 (stereo unspecified) [Metaproterenol sulfate, orciprenaline sulfate] :: 0.769
Cc1[nH]nc(C(F)(F)F)c1Cc1sc2c(c1C(=O)N1C[C@](C)(O)CO1)c(=O)n(C)c(=O)n2C(C)C :: 1.35
CC[C@]1(O)C[C@@H]2CN(CCc3c([nH]c4ccccc34)[C@@](C(=O)OC)(c3cc4c(cc3OC)N(C)[C@H]3[C@@](O)(C(=O)OC)[C@H](OC(C)=O)[C@]5(CC)C=CCN6CC[C@]43[C@@H]65)C2)C1 [Vinblastine sulfate] :: 8.01
O=C1CCc2cc(OCCCCc3nnnn3C3CCCCC3)ccc2N1 :: 0.733
CCn1cc(C(=O)O)c(=O)c2cc(F)c(N3CCNCC3)nc21 :: 1.19
CN[C@@H]1[C@@H](O)[C@@H](O[C@@H]2[C@@H](O)[C@H](O[C@H]3OC(CN)=CC[C@H]3N)[C@@H](N)C[C@H]2N)OC[C@]1(C)O [Sisomicin sulfate] :: 0.712
CCCSc1ccc2[nH]c(NC(=O)OC)nc2c1 :: 5.5
N=C(N)c1ccc(-c2ccc(-c3ccc(C(=N)N)cc3)o2)cc1 [Furamidine dihydrochloride] :: 3.96
COC(=O)C1=C(C)NC(C)=C(C(=O)OCC(C)C)C1c1ccccc1[N+](=O)[O-] (stereo unspecified) :: 1.06

Okay, now this compound:
**Query** Form field: reported phenotypic distance of Cc1cc(Nc2cc(CN3CCOCC3)c3nc(C)c(Cc4ccc(Cl)cc4F)n3n2)n[nH]1
**Result** 7.42

---

# Test system: E34
# measurement_notes: surviving fraction (nuclei count normalised to DMSO); higher = more cells surviving (less toxic)
# experimental_parameters: 3000 nM; exposure time: 72 h
Where a name gives a salt, the structure may show the parent alone.
observable: surviving fraction
Give bare numbers.

Please report surviving fraction for every entry that follows.
1. COc1ccc2[nH]c([S+]([O-])Cc3ncc(C)c(OC)c3C)nc2c1 (centres undefined) [Omeprazole]
2. CN(C)CCN(Cc1ccc(Cl)cc1)c1ccccn1 [Chloropyramine hydrochloride]
3. COc1ccc2c(c1)CC[C@@H]1[C@@H]2CC[C@]2(C)[C@@H](NCCCCCCN3C(=O)CCC3=O)CC[C@@H]12
4. O=c1[nH]c(=O)n([C@H]2C[C@H](O)[C@@H](CO)O2)cc1I [Idoxuridine]

**Result**
[0.988, 1, 0.986, 1.01]

---

# System: E21 (patient-derived glioblastoma stem cells of mesenchymal subtype)
# measurement_notes: surviving fraction (nuclei count normalised to DMSO); higher = more cells surviving (less toxic)
# experimental_parameters: 3000 nM; exposure time: 72 h
Structures can show the parent of a compound that is named as a salt.
observable: surviving fraction

Below, 2 compounds whose answers are already recorded.
COc1cc2c(cc1-c1c(C)noc1C)ncc1[nH]c(=O)n([C@H](C)c3ccccn3)c12 :: 0.391
N=C(N)NCc1cccc(I)c1 [Iobenguane sulfate] :: 0.879

Okay, now this compound:
**Query** Form field: reported surviving fraction of C[C@H](NC(=O)[C@@H](O)c1cc(F)cc(F)c1)C(=O)N[C@@H]1C(=O)N(C)c2ccccc2-c2ccccc21
**Result** 0.898
